- experimentDescription: Delivery vehicle size and polydispersity by dynamic light scattering
- Format: physicochemical
- measurementSetup: formulation recipe R5
Non-standard residues stand in square brackets, D forms with d. Residues, ends and D or L forms follow the SMILES beside them. *: point of attachment. Gly(N-(3-decanoyloxypropyl)) = CCCCCCCCCC(=O)OCCCNCC(=O)O; N(2-decanoyloxyethyl)Gly = CCCCCCCCCC(=O)OCCNCC(=O)O; Gly(N-3-morpholinopropyl) = O=C(O)CNCCCN1CCOCC1; N(2-ethylhexyl)Gly = CCCCC(CC)CNCC(=O)O; N(CH(CH2OH)2)Gly = O=C(O)CNC(CO)CO; N(octyl)Gly = CCCCCCCCNCC(=O)O; For = O=C*
readoutName: Particle Size (nm)
Give bare numbers, in nm.

The cases that follow already have their Particle Size on record.
{"molecule": "CCCCCCCCCC(=O)OCCN(CC(=O)N(CCOC(=O)CCCCCCCCC)CC(=O)N(CC(=O)N(CCOC(=O)CCCCCCCCC)CC(=O)N(CCOC(=O)CCCCCCCCC)CC(=O)N(CC(N)=O)CC(CC)CCCC)CC(CC)CCCC)C(=O)CN(C=O)CCCN1CCOCC1 (centres unmarked) [Compound 76] (For-[Gly(N-3-morpholinopropyl)][N(2-decanoyloxyethyl)Gly][N(2-decanoyloxyethyl)Gly][N(2-ethylhexyl)Gly][N(2-decanoyloxyethyl)Gly][N(2-decanoyloxyethyl)Gly][N(2-ethylhexyl)Gly]-NH2)", "unitSymbol": "nm", "Particle Size": 67.2}
{"molecule": "CCCCCCCCCC(=O)OCCCN(CC(=O)N(CC(N)=O)CC(CC)CCCC)C(=O)CN(CCCCCCCC)C(=O)CN(CC(CC)CCCC)C(=O)CN(CCCOC(=O)CCCCCCCCC)C(=O)CN(CCCCCCCC)C(=O)CNC(CO)CO (centres unmarked) [Compound 32] (H-[N(CH(CH2OH)2)Gly][N(octyl)Gly][Gly(N-(3-decanoyloxypropyl))][N(2-ethylhexyl)Gly][N(octyl)Gly][Gly(N-(3-decanoyloxypropyl))][N(2-ethylhexyl)Gly]-NH2)", "unitSymbol": "nm", "Particle Size": 65.5}
{"molecule": "CCCCCCCCCC(=O)OCCN(CC(N)=O)C(=O)CN(CCOC(=O)CCCCCCCCC)C(=O)CN(CC(CC)CCCC)C(=O)CN(CCOC(=O)CCCCCCCCC)C(=O)CN(CCOC(=O)CCCCCCCCC)C(=O)CN(CC(CC)CCCC)C(=O)CNC(CO)CO (centres unmarked) [Compound 105] (H-[N(CH(CH2OH)2)Gly][N(2-ethylhexyl)Gly][N(2-decanoyloxyethyl)Gly][N(2-decanoyloxyethyl)Gly][N(2-ethylhexyl)Gly][N(2-decanoyloxyethyl)Gly][N(2-decanoyloxyethyl)Gly]-NH2)", "unitSymbol": "nm", "Particle Size": 63.5}
{"molecule": "CCCCCCCCCC(=O)OCCN(CC(=O)N(CCOC(=O)CCCCCCCCC)CC(=O)N(CC(=O)N(CCOC(=O)CCCCCCCCC)CC(=O)N(CCOC(=O)CCCCCCCCC)CC(=O)N(CC(N)=O)CC(CC)CCCC)CC(CC)CCCC)C(=O)CNC(CO)CO (centres unmarked) [Compound 16] (H-[N(CH(CH2OH)2)Gly][N(2-decanoyloxyethyl)Gly][N(2-decanoyloxyethyl)Gly][N(2-ethylhexyl)Gly][N(2-decanoyloxyethyl)Gly][N(2-decanoyloxyethyl)Gly][N(2-ethylhexyl)Gly]-NH2)", "unitSymbol": "nm", "Particle Size": 57.2}

API: the following record is the query input.
Query: Particle Size; subject: CCCCCCCCCC(=O)OCCCN(C=O)CC(=O)N(CCCOC(=O)CCCCCCCCC)CC(=O)N(CC(=O)N(CCCN1CCOCC1)CC(=O)N(CCCOC(=O)CCCCCCCCC)CC(=O)N(CCCOC(=O)CCCCCCCCC)CC(=O)N(CC(N)=O)CC(CC)CCCC)CC(CC)CCCC (centres unmarked) [Compound 112] (For-[Gly(N-(3-decanoyloxypropyl))][Gly(N-(3-decanoyloxypropyl))][N(2-ethylhexyl)Gly][Gly(N-3-morpholinopropyl)][Gly(N-(3-decanoyloxypropyl))][Gly(N-(3-decanoyloxypropyl))][N(2-ethylhexyl)Gly]-NH2)
87.6
